Hi there, I'd appreciate the recorded % of Baclofen Released for every entry that follows.
Tested on: pancreatin
Format: in vitro ADME, porcine
Setup conditions: pig, pancreatin, 1 h, 5 µM, pH 7.5
Numbers only, in %.

As a guide, the following entries are already answered.
CC(C)C(=O)OCOC(=O)NC[C@H](CC(=O)O)c1ccc(Cl)cc1 : 91
CC(=O)OC(C)OC(=O)NC[C@H](CC(=O)O)c1ccc(Cl)cc1 (stereo partly shown) : 9
CCCC(=O)OCOC(=O)NC[C@H](CC(=O)O)c1ccc(Cl)cc1 : 84

Could you now consider this next molecule?
Request body: readout % of Baclofen Released, system pancreatin, query CC(OC(=O)NC[C@H](CC(=O)[O-])c1ccc(Cl)cc1)OC(=O)c1ccccc1.[Na+] (stereo partly shown) . Return the value. 58

----------
System: pancreatin
Type: in vitro ADME, porcine
Setup conditions: 1 % (w/v) pancreatin, 5 µM, pH 7.5, 37 °C, after 60 min
Decision: % of Prodrug Remaining compared against 9%; not below it gives TRUE, below it gives FALSE.

Example entries begin here.
CCCC(=O)OC(OC(=O)NC[C@H](CC(=O)O)c1ccc(Cl)cc1)C(C)C (stereo partly drawn) : TRUE
O=C(O)C[C@@H](CNC(=O)OCOC(=O)C1CCCCC1)c1ccc(Cl)cc1 : FALSE

Does "O=C(O)C[C@@H](CNC(=O)OCOC(=O)CCc1ccccc1)c1ccc(Cl)cc1" have a reported % of Prodrug Remaining of at least 9%? FALSE

Does "CCCC(=O)O[C@H](CCC)OC(=O)NC[C@H](CC(=O)O)c1ccc(Cl)cc1" have a reported % of Prodrug Remaining of at least 9%? FALSE

Does CC(C)C(OC(=O)NC[C@H](CC(=O)O)c1ccc(Cl)cc1)OC(=O)C(C)(C)C (stereo partly drawn) have a reported % of Prodrug Remaining of at least 9%? TRUE

----------
Tested on: pancreatin
Assay type: in vitro ADME, porcine
Setup conditions: pig, pancreatin, 1 h, 5 µM, pH 7.5
Measurement label: % of Prodrug Remaining (%)
Numbers only, in %.

CC(C)C(=O)O[C@@H](OC(=O)NC[C@H](CC(=O)O)c1ccc(Cl)cc1)C(C)C : 90
CC(=O)OC(C)OC(=O)NC[C@H](CC(=O)O)c1ccc(Cl)cc1 (some centres unmarked) : 90
CC(C)C(=O)OCOC(=O)NC[C@H](CC(=O)O)c1ccc(Cl)cc1 : 2
CCCC(=O)OCOC(=O)NC[C@H](CC(=O)O)c1ccc(Cl)cc1 : 1

Request body: readout % of Prodrug Remaining, system pancreatin, query CC(OC(=O)NC[C@H](CC(=O)[O-])c1ccc(Cl)cc1)OC(=O)c1ccccc1.[Na+] (some centres unmarked) . Return the value. 43

----------
Tested on: pancreatin
Format: in vitro ADME, porcine
Setup conditions: 1 % (w/v) pancreatin, 5 µM, pH 7.5, 37 °C, after 60 min
Hi there, I'd appreciate the recorded % of Baclofen Released for every entry that follows.
One number for each entry, in %.

As a guide, the following entries are already answered.
CCCC(=O)O[C@H](OC(=O)NC[C@H](CC(=O)O)c1ccc(Cl)cc1)C(C)C : 68
CCCC(=O)O[C@H](CCC)OC(=O)NC[C@H](CC(=O)O)c1ccc(Cl)cc1 : 76

Hi! Can you tell me % of Baclofen Released for each of these compounds?
1. O=C(O)C[C@@H](CNC(=O)OCOC(=O)CCc1ccccc1)c1ccc(Cl)cc1
2. CC(C)C(OC(=O)NC[C@H](CC(=O)O)c1ccc(Cl)cc1)OC(=O)C(C)(C)C (stereo partly drawn)
3. CCCC(=O)OC(OC(=O)NC[C@H](CC(=O)O)c1ccc(Cl)cc1)C(C)C (stereo partly drawn)
4. O=C(O)C[C@@H](CNC(=O)OCOC(=O)C1CCCCC1)c1ccc(Cl)cc1

79
4
9
101

Where these numbers come from: patent EP2354120A1
